Biological target: β/α & β2 (Homo sapiens, UniProt P17787+P43681)
Sequence (P17787 26-502): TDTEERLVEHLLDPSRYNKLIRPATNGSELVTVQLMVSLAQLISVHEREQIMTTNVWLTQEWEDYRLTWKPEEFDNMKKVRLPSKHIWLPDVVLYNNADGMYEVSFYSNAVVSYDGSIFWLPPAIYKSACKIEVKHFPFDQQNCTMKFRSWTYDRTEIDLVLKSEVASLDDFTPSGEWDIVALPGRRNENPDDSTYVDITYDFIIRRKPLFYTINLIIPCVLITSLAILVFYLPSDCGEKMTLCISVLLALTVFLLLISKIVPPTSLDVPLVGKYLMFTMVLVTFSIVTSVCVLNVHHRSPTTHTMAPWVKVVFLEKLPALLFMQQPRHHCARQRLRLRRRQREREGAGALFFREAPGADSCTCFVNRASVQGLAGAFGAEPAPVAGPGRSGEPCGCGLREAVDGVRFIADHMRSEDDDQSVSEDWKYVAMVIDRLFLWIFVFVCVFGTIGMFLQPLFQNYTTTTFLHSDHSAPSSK
Sequence (P43681 27-627): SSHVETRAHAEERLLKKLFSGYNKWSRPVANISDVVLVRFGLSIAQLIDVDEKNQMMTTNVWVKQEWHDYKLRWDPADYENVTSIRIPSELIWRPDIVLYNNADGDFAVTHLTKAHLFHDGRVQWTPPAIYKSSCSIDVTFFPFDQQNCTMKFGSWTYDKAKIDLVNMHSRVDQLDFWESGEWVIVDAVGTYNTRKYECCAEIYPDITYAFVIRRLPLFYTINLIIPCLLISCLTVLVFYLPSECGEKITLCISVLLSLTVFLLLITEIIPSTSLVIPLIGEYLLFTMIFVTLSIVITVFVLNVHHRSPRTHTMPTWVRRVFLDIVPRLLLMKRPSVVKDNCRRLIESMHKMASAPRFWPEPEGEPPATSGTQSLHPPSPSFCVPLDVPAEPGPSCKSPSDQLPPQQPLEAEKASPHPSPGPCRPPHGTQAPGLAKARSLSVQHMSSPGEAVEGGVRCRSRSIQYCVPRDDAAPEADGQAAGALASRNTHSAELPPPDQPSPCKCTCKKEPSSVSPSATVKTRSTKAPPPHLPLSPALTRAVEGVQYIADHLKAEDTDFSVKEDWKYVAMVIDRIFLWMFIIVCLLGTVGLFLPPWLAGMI
Sequence (P17787 26-502): as the sequence (P17787 26-502) above
Test: Agonist activation, two-electrode voltage clamp of Xenopus oocytes
pEC50: −log10 of the molar value.

>  <SMILES STR>
Ic1cncc(OC[C@@H]2CCN2)c1

>  <pEC50>
7.54

$$$$
